Reference source for all entries: PubChem BioAssay (NCI)

So I've got GI50 readings for T-47D breast, take a look.
Property Measured: GI50

[[record]]
compound = "COc1cc(/C=C/C(=O)C(=Cc2ccc(F)c(F)c2)C(=O)/C=C/c2ccc(O)c(OC)c2)ccc1O"
measurement = "2310 nM"

[[record]]
compound = "O=C1NC(=NCc2cccs2)SC1Cc1ccc2ncccc2c1 (centres undefined)"
measurement = "24900 nM"

[[record]]
compound = "CCN(CC)CCN1C(=O)c2cccc3c(-c4ccc5c(c4)ncn5C4CCCCC4)ccc(c23)C1=O"
measurement = "1650 nM"

[[record]]
compound = "O=S(=O)(NCCNc1nccc(-c2c(-c3cccc(O)c3)nc3sccn23)n1)c1ccc(F)cc1"
measurement = "6540 nM"

[[record]]
compound = "COc1cc2c(cc1OCCCCNC(=O)c1cc3ccccc3[nH]1)N=CC1CCCN1C2=O (centres undefined)"
measurement = "21700 nM"

[[record]]
compound = "O=C(N[C@H](c1ccc(Cl)c(Cl)c1)C1CNC1)c1ccc2cnccc2c1"
measurement = "2290 nM"

[[record]]
compound = "CCN1CCN(CCOc2ccc(CNc3ccc4nc(CCC5CCCCC5)[nH]c4c3)cc2)CC1"
measurement = "1930 nM"

[[record]]
compound = "CCCc1cc(=O)oc2c(C(=O)CC(C)C)c(O)c(CC=C(C)C)c(O)c12"
measurement = "9330 nM"

[[record]]
compound = "O=C(CCCn1c2c(sc3ncccc32)c(=O)n2nnc(-c3ccccc3)c12)NCCc1cnc[nH]1"
measurement = "1870 nM"

[[record]]
compound = "N#Cc1ccc(Oc2nccc(-c3c(-c4ccc(F)cc4)ncn3C3CCNCC3)n2)cc1"
measurement = "> 25000 nM"

[[record]]
compound = "Nc1nc(N)c2cc(CNc3ccc(Cl)c(Cl)c3)ccc2n1"
measurement = "1540 nM"

[[record]]
compound = "CCCNc1nc(N(C)O)nc(N(C)O)n1"
measurement = "3900 nM"

[[record]]
compound = "CCOc1ccc(Cc2nccc3cc(OCC)c(OCC)cc23)cc1OCC"
measurement = "1470 nM"

[[record]]
compound = "C=CCN1C(=O)/C(=c2\\sc3n(c2=O)C2C(NN=3)N(CC)C(=O)N2CC)c2ccccc21 (centres undefined)"
measurement = "438 nM"

